Just for reference, ChEMBL document CHEMBL1121949 is where these values come from.

# assay_method_text: Relative potency inhibitory calculated as the ratio of AK-II/AK-M
reported_metric: Relative inhibitory potency

1. CCSc1nc2c(N)ncnc2n1C1O[C@H](COP(=O)(O)OP(=O)(O)OP(=O)(O)OP(=O)(O)OP(=O)(O)OC[C@H]2OC(n3c(SCC)nc4c(N)ncnc43)[C@H](O)[C@@H]2O)[C@@H](O)[C@H]1O (stereo partly drawn); > 22
2. CCC[C@@H](OP(=O)(O)OP(=O)(O)OP(=O)(O)O)[C@H]1OC(n2cnc3c(N)ncnc32)[C@H](O)[C@@H]1O (stereo partly drawn); > 2.4

Please look at the following molecule next.
# molecule C[C@@H](OP(=O)(O)OP(=O)(O)OP(=O)(O)O)[C@H]1OC(n2cnc3c(N)ncnc32)[C@H](O)[C@@H]1O (stereo partly drawn) ; its Relative inhibitory potency = 0.13
